- experimentalProtocol: soluble on expression in E. coli; label from the status in PepcDB or PDB records
observable: soluble on expression in E. coli

| inputSequence | observable | endpointValue |
| --- | --- | --- |
| MAHHHHHHMLVKENHSVILYADEENVELVKLTSDGVLTNRKGTFLHKNIIGKKYGSKIYDSACRNYIYVLRRTPEFVAISLKKKTQTLYEHDISFICLLCNALPNKKIIEAGTGTGCLTYALASCVLPKGVIHTFEYNEERYEEVRNEFSNFENVKNNIKFHHKDVISDSFVEFQPGEIDSVFLDMPNPWLCVPHVKKVLKERGVFVIFLPCIEQVYKIIEALEENQFCEIVTYELVNKSWEIIRNGGPAGGCKRARQFSLGGAKETSDPLEGVKETGDPLEGVKETGGPLEGVKETGDPLEGVKETGDPLERAKQSNDPLERAKQSSDPSNEQKNCPTPAQSQNPTYRLRQKENKTHTGYLIFSKKELSDEHEQIEIELKGV | soluble on expression in E. coli | not soluble |
| MGSDKIHHHHHHMQTDKIFYSLFQAFTSIFFAIIGEADINPSTYEFVSVELKETAFRIDGVFKPVNETTEEPLYFVEVQFQLDPKFYRRFFAEIFLYLRQNPSVNFWRAVVIYPQRIIEPDDQQPYRSILDSSQIQRIYLDELGTANENSLQLAIMQLIIASEAIAIDQGRQLIIQARQELTDEANKKQIVELIETILLYKFTNLSREEVAAMLGIDDEFKKTRMYQSIKEDGLEEGRQEGRQQGIQEGRQEGRLQAKLEAIPRLLALGLSVEQIASALDLSIEQVQQVTGN | soluble on expression in E. coli | not soluble |

* * *

- experimentalProtocol: soluble on expression in E. coli; label from the status in PepcDB or PDB records

| inputSequence | soluble on expression in E. coli |
| --- | --- |
| MGSSHHHHHHGGTGENLYFQGGSGMAYRHQATDQFHRFLHNPHVVQPDGVDGLPRVKGDQQQWLNTEQWHGYSDTYLQRHMQYPATVELNNPAVNARHDLLYECLGLVYELYGGLAEDLQELHDDPLHPHFHRRIARIKRDRERIATELDKRYAKLHPTVKTVYDAFLVRRYYHLADWIEHVERKRERLINDLSPDVMEKTMRMRGIAEQYLRHLRALEHALYEDPLMGLLGGDRGTNVLDQYTPGELAMLRQKAAYFRNMRRFGANQLDADMHTH | soluble |
| GSFTMDDISPSELKTILHSKRANLYYLQHCRVLVNGGRVEYVTDEGRHSHYWNIPIANTTSLLLGTGTSITQAAMRELARAGVLVGFCGGGGTPLFSANEVDVEVSWLTPQSEYRPTEYLQRWVGFWFDEEKRLVAARHFQRARLERIRHSWLEDRVLRDAGFAVDATALAVAVEDSARALEQAPNHEHLLTEEARLSKRLFKLAAQATRYGEFVRAKRGSGGDPANRFLDHGNYLAYGLAATATWVLGIPHGLAVLHGKTRRGGLVFDVADLIKDSLILPQAFLSAMRGDEEQDFRQACLDNLSRAQALDFMIDTLKDVAQRSTVSA | soluble |

* * *

- experimentalProtocol: soluble on expression in E. coli; label from the status in PepcDB or PDB records

| inputSequence | soluble on expression in E. coli |
| --- | --- |
| MSLNTYLNEISKFVDENREEIVSLWKEIVNMESYTHCKESVNKLAERLKLEFEKEGLDCELVDVGDNGSTLIGTLGSNIDKKPIIFSGHMDTVFETGTFGENPFKIIEGKAYGPGVLDMKGGIIISLYVIKALNKIGYKERPIKIVFSGDEEIGHKDSTGADVILREAKGGLCAFNMETGLVDNSLCVGRKGRIGCNIHVKGVETHAGNDFEGGRNAIEEMANKILRIQKLTNLDVGTTVSVSVIKGGRVENSIPEDCSIKVDLRFEKVEEMENVKEQVREICKETYIEGTSTEVNFISEMMPFETTEDVMRFHTFVNEVSKENGFGELNAKRLGGSSDASYLTIANVPTICSFGVRGEWNHTSREYAVVDSMFERVKLISTVILNLDKFEEGHHHHHH | soluble |
| DEPILSFSPKTYSFRQDGRIKEVSVFTYHKKYNPDKHYIYVVRILREGQIEPSFVFRTFDEFQELHNKLSIIFPLWKLPGFPNRMVLGRTHIKDVAAKRKIELNSYLQSLMNASTDVAECDLVCTFFHPLLRDEKAEGIA | soluble |

* * *

- experimentalProtocol: soluble on expression in E. coli; label from the status in PepcDB or PDB records

| inputSequence | soluble on expression in E. coli |
| --- | --- |
| MDVNPTLLFLKVPAQNAISTTFPYTGDPPYSHGTGTGYTMDTVNRTHQYSEKGRWTTNTETGAPQLNPIDGPLPEDNEPSG | soluble |
| MSLKITAVEPFILHLPLTSESISDSTHSITHWGVVGAKITTSDGIEGYGFTGTHAHLPSDRLITSCISDCYAPLLLGEDASDHSRLWTKLARYPSLQWVGRAGITHLALAAVDVALWDIKAKKAGVPLWHYLGGARTAGVEAYNTDIGWLSFTLEDLLAGSARAVEEDGFTRLKIKVGHDDPNIDIARLTAVRERVDSAVRIAIDGNGKWDLPTCQRFCAAAKDLDIYWFEEPLWYDDVTSHARLARNTSIPIALGEQLYTVDAFRSFIDAGAVAYVQPDVTRLGGITEYIQVADLALAHRLPVVPHAGEMSQVHVHLSYWHPASTILEYIPWIKDHFEEPIHVRDGVYKRPEQPGASTTPLAESFTRYGKAVKEGHHHHHH | soluble |
| MRRGRGKGKKQNASAREDRGSGDEEKIPAYRRRGRPQKPMKDDFEEEEEEDDEEMVEKMEVEDEDEEIDDGSVTSKDLKERKRKMSNGSNTDLTEEENGLGSKPNTDDSTRSTSIGFRQNGSRRKSKPRRAAEAVVECNGV | soluble |

* * *

- experimentalProtocol: soluble on expression in E. coli; label from the status in PepcDB or PDB records
observable: soluble on expression in E. coli

Solved entries:
| inputSequence | soluble on expression in E. coli |
| --- | --- |
| MGSDKIHHHHHHMPDFSYAKITKLVVHFAGNKAREEGTEVSANVLQDIGSEMNQTLASIFLEPFTKDDYYQFSHETDLDFNEVRTFAANMFGAEEEFLDESKKILEHLYSETTHPNIKSGDVWIFFIEGCVVDGDFTNGIGIFKVENKEVFLKNDFNGSEFQIGYDKGITGTDLDKGCLIFNVDHDSGNKVLILDRLNRGDSVYWKDKFLSIDKITDEKFYTEGFVEVCTDYIKQREESLLDKSNFVKATSEYLAGEETLNIAEFARTTIEKPEEITEFNTMVDTFERENNVRFPETFQLDEEKREKLSKKIRKTIKLGKNISVVVKDLEQLEETDFVQGYDEEKGKNYMIVYYD | not soluble |
| MISHLFQTYGRRTVEFVKGNGTKVIDNNGKQYLDFTSGIGVCNLGHCHPTVMKAVQEQLNDIWHISNLFTNSLQEEVASLLTENIALDYVFFCNSGAEANEAALKLARKHTGKSLVVTCEQSFHGRTFGTMSATGQNKVKEGFGPLLPSFLHTPFNDIKALKEVMNEEVAAVMVEVVQGEGGVIPADLSFLKEIETLCKKFGSLFIIDEVQTGIGRTGTLFAYEQMGIDPHIVTTAKALGNGIPVGAMIGRKELGTSFTAGSHGSTFGGNYVAMAAAKEVLQVSKRLSFLKEVQEKGEYVLQKLQEELQHVECIQNIRGKGLMVGIECTHEVASFIEQLEKEGLLVLQAGPNVIRLLPPLIVTNEELEQAVYMIKKVVCTKNVSII | not soluble |
| MTRSALKPFKNKRVMVTGRIQRVLFKNYLDRHSTFKPNVRILLKDVFVSGVSIDHLWLYETNKYYALAMELIHQRVKFSANVVPYYKINRNNNLFVQDYGIKRKGRLITEEAYNQNNQYQDKIYEKLPDIDFRLEDFYSKENLEHHHHHH | not soluble |
| SPQRKVANNKQNIEYNDDNHVHHMHSHNPPIDCAILLPSKPRFIFQDVTVFNFNVSGNPSDLNTPVVQFNLSFRNPNANIRIYYDTLDVYAFYGNGSQQIIIPTPMPSTYQGHKEDSVWSPYIPVVPYNALYLDDQHHSRDGNMLMLHLDGRISWLLLGN | soluble |
| MAPQPFDIDTPSLRVFLPAPELATGRAIVACPGGGYGGLAVNHEGYDWAPYFNKQGIALIVLKYRMPHGDRTLPISDAEAAMKMARDSADVWNLNPYDIGIMGSSAGGHLASTIATHTRPELRPNFQILFYPVITMDKSYTHIGSHDNLLGKDAFAELETEFSNEKQVTKETPRAFIAYSDDDKTVPPANGVNYYLGLHKNHVPAVLHIYASGGHGWGIRENFIYLEHHHHHH | not soluble |

Next, consider the following sequence.
Report measured soluble on expression in E. coli; entry is GMIRLLYLLVKPAGMSDETFRAECLRHYEMSHDVPGLHKYEVRLVAEQPTDTHVPFFDIGHVDAIGECWFKDDAAYATYMASDIRKAWFEHGKTFIGQLKPFRTAPVAGDEPAS soluble
